molecular target: Platelet-activating factor receptor (Mus musculus) (UniProt Q62035); assay: Antagonism of Platelet activating factor (PAF)in mice after Intravenous administration, assayed by PAF-induced death; format: functional, organism-based
Sequence (Q62035 whole entry): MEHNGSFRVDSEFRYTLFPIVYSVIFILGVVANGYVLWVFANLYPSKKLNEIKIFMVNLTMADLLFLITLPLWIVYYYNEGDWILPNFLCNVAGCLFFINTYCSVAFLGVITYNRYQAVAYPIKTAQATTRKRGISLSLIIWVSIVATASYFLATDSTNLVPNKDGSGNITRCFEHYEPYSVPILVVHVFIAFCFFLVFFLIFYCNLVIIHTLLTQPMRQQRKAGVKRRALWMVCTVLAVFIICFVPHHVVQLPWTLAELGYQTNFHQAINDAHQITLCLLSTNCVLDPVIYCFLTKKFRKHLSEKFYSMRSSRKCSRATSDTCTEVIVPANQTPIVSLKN
property label: ED50 (mg/kg)

compound | property label | reading
CCOC(=O)CCCCO/N=C(/c1cccnc1)c1cccc(CCCC(=O)N2CCc3c(sc4c3C(c3ccccc3Cl)=NC(C)c3nnc(C)n3-4)C2)c1 (stereo not given) | ED50 | 1.05
CCOC(=O)CCCCO/N=C(/c1cccnc1)c1ccccc1C(=O)N1CCc2c(sc3c2C(c2ccccc2Cl)=NC(C)c2nnc(C)n2-3)C1 (stereo not given) | ED50 | 2.4
CCOC(=O)CCCCO/N=C(\c1ccc(CC(=O)N2CCc3c(sc4c3C(c3ccccc3Cl)=NC(C)c3nnc(C)n3-4)C2)cc1)c1cccnc1 (stereo not given) | ED50 | 4.2
CCOC(=O)CCCC/C=C(/c1cccnc1)c1cccc(CN2CCc3c(sc4c3C(c3ccccc3Cl)=NC(C)c3nnc(C)n3-4)C2)c1 (stereo not given) | ED50 | 0.6
Cc1nnc2n1-c1sc3c(c1C(c1ccccc1Cl)=NC2C)CCN(Cc1cccc(/C(=N\OCCCCC(=O)O)c2cccnc2)c1)C3 (stereo not given) | ED50 | 0.47
